switch fluorescence ratio values by entry
# Test system: ATP;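 further: ATP exposure 15 min at 22 °C before imaging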
# MEASUREMENT NOTES: switch fluorescence ratio, 500 uM ATP over buffer (Cy3 cluster intensity, sum of 5 cycles each) (fold (ratio)); higher = stronger signal-on switching upon ATP binding; sequences stand for … in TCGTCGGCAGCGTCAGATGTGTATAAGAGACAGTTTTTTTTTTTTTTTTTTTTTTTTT…TC
# REPORTED CONDITIONS: aptamer strand: ATP DNA aptamer (quencher-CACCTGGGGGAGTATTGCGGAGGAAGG + anchor), 100 nM annealed; ATP concentration: 500 uM
ATTRIBUTE MEASURED: switch fluorescence ratio

seq_string=GATACATTAT recorded_number=0.998
seq_string=TTGGGGGAAA recorded_number=1
seq_string=TTGTGTGGGA recorded_number=1.02
seq_string=GGTGCATGGG recorded_number=1.01
seq_string=CCTTACTTTT recorded_number=0.998
seq_string=CGGGCAGTTG recorded_number=0.999
seq_string=GGGAGTGTAA recorded_number=1
seq_string=GGAGGTTGGG recorded_number=0.958
seq_string=GCTTCCTGTG recorded_number=1.49
seq_string=CCGGTGTGTT recorded_number=1.03
seq_string=GCGAAGGTCT recorded_number=1
seq_string=ATTTCCACAA recorded_number=1.1
seq_string=TCAATAATCG recorded_number=1.01
seq_string=TATGGGCGTC recorded_number=0.999
seq_string=GCACATAGCT recorded_number=1.01
seq_string=TGCTACAGGT recorded_number=1.04
seq_string=AGTTTGAGTT recorded_number=1.02
seq_string=TGATACTTAG recorded_number=1.06
seq_string=TCGAACGTTG recorded_number=1.03
seq_string=ACGGGGAAGG recorded_number=1.03
seq_string=CGCTTCGGTT recorded_number=0.963
seq_string=CCCGGGTTAT recorded_number=0.994
seq_string=AACAGGGGGA recorded_number=1.09
seq_string=AGCGGGAACG recorded_number=1
seq_string=GTTTTTTTAA recorded_number=1
seq_string=GGCCTAAATT recorded_number=0.989
seq_string=AAATGTGCGA recorded_number=0.977
seq_string=TGGGGGCCGA recorded_number=1.05
seq_string=TTTTAGTTT recorded_number=0.996
seq_string=AGAAGCTGGG recorded_number=1
seq_string=TTGGACATGC recorded_number=1.06
seq_string=TGTGTTTTT recorded_number=0.992
seq_string=AGAATTGCGG recorded_number=0.98
seq_string=GTTTGTTGGT recorded_number=0.977
seq_string=ACCAAGTATC recorded_number=1.04
seq_string=GGATTACGAC recorded_number=1.12
seq_string=TTGGGCCACG recorded_number=0.983
seq_string=TGTGGTGAGT recorded_number=0.963
seq_string=TATCCCTGCT recorded_number=1
seq_string=ATATAAGAGC recorded_number=1.03
seq_string=ATTCTCCTTG recorded_number=1
seq_string=TTGATCAGGG recorded_number=0.989
seq_string=CGTATAGGAG recorded_number=1.02
seq_string=TTTTTTGTTC recorded_number=1.14

====

# Test system: ATP;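 further: ATP exposure 15 min at 22 °C before imaging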
# MEASUREMENT NOTES: switch fluorescence ratio, 500 uM ATP over buffer (Cy3 cluster intensity, sum of 5 cycles each) (fold (ratio)); higher = stronger signal-on switching upon ATP binding; sequences stand for … in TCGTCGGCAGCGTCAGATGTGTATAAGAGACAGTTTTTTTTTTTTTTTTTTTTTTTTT…TC
# REPORTED CONDITIONS: aptamer strand: ATP DNA aptamer (quencher-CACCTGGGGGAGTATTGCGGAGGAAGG + anchor), 100 nM annealed; ATP concentration: 500 uM
Each item that follows carries a reported switch fluorescence ratio.
ATTRIBUTE MEASURED: switch fluorescence ratio

seq_string=AAAAGTGGCA result=1.07
seq_string=ATGGACGTGT result=0.993
seq_string=GGGGGCGACT result=0.978
seq_string=GGGGATATTC result=1
seq_string=GGGTATGTGG result=0.972
seq_string=AGGAACTGCA result=1.07
seq_string=CAGCGGGATT result=0.995
seq_string=AAAGCAATGG result=2.51
seq_string=TTGAGGGCTT result=0.998
seq_string=ATGAAGGGGG result=1.03
seq_string=TGGTCGGTCT result=1.07
seq_string=GGTGTTGGAC result=0.997
seq_string=TTAAAGAGCG result=0.989
seq_string=TTCTAATCCG result=1.04
seq_string=GGGATGGGCG result=1.03
seq_string=TGCCTTTTCG result=1.02
seq_string=CCGGCATCGG result=1.02
seq_string=GGCTACGGAA result=2.32
seq_string=CCCAGTAGCG result=1.03
seq_string=GGGGATGCGA result=1.09
seq_string=TAATCGCTAA result=1.13
seq_string=ATCGATAGTG result=1
seq_string=TTTTTTGATT result=1.01
seq_string=TCTCAAGTGC result=1.12
seq_string=ATTTGAAACT result=1.02
seq_string=TTAGGAGACT result=0.991
seq_string=ACTTATTTGC result=1.16
seq_string=AGGCAGTTGG result=0.966
seq_string=AGTGTAAGTA result=0.996
seq_string=CTGGCTGCGG result=1.01
seq_string=TTTGATGTAC result=1.05
seq_string=TCGGGCGTAT result=1
seq_string=AGTATCTTAC result=1.03
seq_string=TGCTTCCGAA result=1.52
seq_string=TTTTGGCAGG result=1.03
seq_string=TTTTAGGTGG result=0.98

====

# Test system: ATP;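 further: ATP exposure 15 min at 22 °C before imaging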
# MEASUREMENT NOTES: switch fluorescence ratio, 500 uM ATP over buffer (Cy3 cluster intensity, sum of 5 cycles each) (fold (ratio)); higher = stronger signal-on switching upon ATP binding; sequences stand for … in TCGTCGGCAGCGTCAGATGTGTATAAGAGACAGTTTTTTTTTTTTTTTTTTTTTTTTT…TC
# REPORTED CONDITIONS: aptamer strand: ATP DNA aptamer (quencher-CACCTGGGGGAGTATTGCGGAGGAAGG + anchor), 100 nM annealed; ATP concentration: 500 uM
ATTRIBUTE MEASURED: switch fluorescence ratio

seq_string=AAGCAGGGAT attribute_measured="switch fluorescence ratio" recorded_number=0.999
seq_string=GGAGTGCAG attribute_measured="switch fluorescence ratio" recorded_number=0.964
seq_string=GTTTCGTATA attribute_measured="switch fluorescence ratio" recorded_number=0.997
seq_string=AGATGTATTT attribute_measured="switch fluorescence ratio" recorded_number=0.997
seq_string=TGGTTTTTT attribute_measured="switch fluorescence ratio" recorded_number=0.998
seq_string=TAAAGAATTT attribute_measured="switch fluorescence ratio" recorded_number=0.98
seq_string=TATTTGGCAT attribute_measured="switch fluorescence ratio" recorded_number=1.04
seq_string=TTTTAGGACA attribute_measured="switch fluorescence ratio" recorded_number=1
seq_string=CACAAGGCGG attribute_measured="switch fluorescence ratio" recorded_number=1.03
seq_string=TTAAAGGGGT attribute_measured="switch fluorescence ratio" recorded_number=1.05

====

# Test system: ATP;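 further: ATP exposure 15 min at 22 °C before imaging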
# MEASUREMENT NOTES: switch fluorescence ratio, 500 uM ATP over buffer (Cy3 cluster intensity, sum of 5 cycles each) (fold (ratio)); higher = stronger signal-on switching upon ATP binding; sequences stand for … in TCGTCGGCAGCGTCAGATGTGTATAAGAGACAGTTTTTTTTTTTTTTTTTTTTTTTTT…TC
# REPORTED CONDITIONS: aptamer strand: ATP DNA aptamer (quencher-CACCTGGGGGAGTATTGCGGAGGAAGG + anchor), 100 nM annealed; ATP concentration: 500 uM
Readings of switch fluorescence ratio for the listed sequences
ATTRIBUTE MEASURED: switch fluorescence ratio

seq_string=AGAGTGCCTG attribute_measured="switch fluorescence ratio" recorded_number=1.04
seq_string=GTTTTTAGTG attribute_measured="switch fluorescence ratio" recorded_number=0.983
seq_string=CCGGTTAAGC attribute_measured="switch fluorescence ratio" recorded_number=1.2
seq_string=CTCGATGTGG attribute_measured="switch fluorescence ratio" recorded_number=0.985
seq_string=TTATATTACT attribute_measured="switch fluorescence ratio" recorded_number=1.01
seq_string=GACATAAATG attribute_measured="switch fluorescence ratio" recorded_number=1.03
seq_string=TGAACGACAG attribute_measured="switch fluorescence ratio" recorded_number=1.03
seq_string=GACAGTGGTA attribute_measured="switch fluorescence ratio" recorded_number=0.973
seq_string=AAAGTGCCCG attribute_measured="switch fluorescence ratio" recorded_number=0.979
seq_string=TTGGGGGCA attribute_measured="switch fluorescence ratio" recorded_number=1.03
seq_string=GGGATGAATG attribute_measured="switch fluorescence ratio" recorded_number=0.977

====

Reported switch fluorescence ratio values for a set of sequences
# System: ATP;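 further: ATP exposure 15 min at 22 °C before imaging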
# MEASUREMENT NOTES: switch fluorescence ratio, 500 uM ATP over buffer (Cy3 cluster intensity, sum of 5 cycles each) (fold (ratio)); higher = stronger signal-on switching upon ATP binding; sequences stand for … in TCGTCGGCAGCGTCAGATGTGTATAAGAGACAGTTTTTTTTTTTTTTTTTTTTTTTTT…TC
# REPORTED CONDITIONS: aptamer strand: ATP DNA aptamer (quencher-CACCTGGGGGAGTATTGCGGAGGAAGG + anchor), 100 nM annealed; ATP concentration: 500 uM
ATTRIBUTE MEASURED: switch fluorescence ratio

seq_string=TGTAGATTTT recorded_number=0.981
seq_string=GCTGGTTGA recorded_number=1.01
seq_string=ATGAGTGCTT recorded_number=0.978
seq_string=TTTCGGATGT recorded_number=0.984
seq_string=CAAACGTGTG recorded_number=0.991
seq_string=CTTGTAATGT recorded_number=1.02
seq_string=CGGGGGAGTA recorded_number=0.996
seq_string=GGGGTCCTAA recorded_number=0.986
seq_string=AAAGACAGGG recorded_number=0.976
seq_string=TCTGGGTGGA recorded_number=0.994
seq_string=TAGTAAGTCA recorded_number=0.976
seq_string=TTGTTTGATG recorded_number=1.01
seq_string=GGGGACGGGT recorded_number=1.01
seq_string=CTGTACTGGG recorded_number=0.999
seq_string=TGGGTAATCA recorded_number=0.981
seq_string=ATGTTGATAT recorded_number=1.01
seq_string=TACGTTTGCG recorded_number=1.01
seq_string=CATGCTGTA recorded_number=0.981
seq_string=AATTTAAGCG recorded_number=1.01
seq_string=TAAGGTCGAT recorded_number=1.01
seq_string=TGAGAGTTTT recorded_number=0.978
seq_string=ATTGTTTAAG recorded_number=1.01
seq_string=TAATGGTATT recorded_number=0.975
seq_string=TTGGGGTGCC recorded_number=1.01
seq_string=AGATAATTCT recorded_number=1.02
seq_string=AAATTACAGT recorded_number=0.995
seq_string=CGATTAGTTA recorded_number=0.998
seq_string=CTTGAGATGT recorded_number=1.02
seq_string=CTCATCTAAT recorded_number=0.982
seq_string=TGGTATTGCT recorded_number=0.996
seq_string=ATCGTCATAT recorded_number=1
seq_string=TGATTAGAGG recorded_number=1.02
seq_string=TTAAAGAGGC recorded_number=0.993
seq_string=AGGGGTATGG recorded_number=0.998
seq_string=TAATTAAGGA recorded_number=1
seq_string=AAGCCAAGTA recorded_number=1
seq_string=TTCTGTACGG recorded_number=1.02
seq_string=GGGTTAGTTT recorded_number=0.992
